experiment: qHTS assay to identify small molecule agonists of the retinoic acid receptor (RAR) signaling pathway (AID 1159553); conditions: C3RL4 RARE luciferase reporter, agonist, 6 h; series mostly up to 73.3 µM; as to activation: % is scaled to controls: 0 for no effect and ±100 for the full control effect
Inconclusive results are not listed. The source made the active and inactive calls. Calls follow the shape of the dose curve; as a rule, active = well fitted activation curve with a large enough effect in the repeat runs; inconclusive = weak or mixed curves, or effect the other way; inactive = no such curve, though single readings can be large or run the other way.
Respond with a class label; see active, inactive

Answered examples (5):
Returns: the outcome recorded for CCN(CCCCOC(=O)c1ccc(OC)c(OC)c1)C(C)Cc1ccc(OC)cc1 (stereo not drawn) in this assay.
inactive

Returns: the outcome recorded for CC(C)NC(=O)c1ccccc1N in this assay.
inactive

Returns: the outcome recorded for CCCCCCCCS in this assay.
inactive

Returns: the outcome recorded for Cc1ccc(S(=O)(=O)NC(=O)NC2CCCC2)cc1 in this assay.
inactive

Returns: the outcome recorded for CC(C)(Cc1c[nH]c2ccccc12)NCC(O)COc1ccccc1C#N (stereo not drawn) in this assay.
inactive

More entries:
Returns: the outcome recorded for N#CCCCC(C#N)CCC#N (stereo not drawn) in this assay.
inactive

Returns: the outcome recorded for CS(C)=O in this assay.
inactive

Returns: the outcome recorded for CC1(C)[C@@H]2CC[C@]3(C2)[C@@H]1C(=O)CCC3(C)C in this assay.
inactive

Returns: the outcome recorded for Oc1ccc(Oc2ccccc2)cc1 in this assay.
inactive

Returns: the outcome recorded for Oc1ccc(CCNCCCCCCNCCc2ccccc2)cc1O in this assay.
inactive

Returns: the outcome recorded for CCc1ccc2c(c1)C(=O)c1ccccc1C2=O in this assay.
active

Returns: the outcome recorded for NC(=O)c1ccccc1 in this assay.
inactive

Returns: the outcome recorded for CCn1nc(Cc2ccccc2)cc1C1CCN(C[C@H]2C[C@H](N(C)[C@@H](C(=O)O)C(C)C)C[C@@H]2c2cccc(F)c2)CC1 in this assay.
inactive

====

experiment: qHTS assay to test for compound auto fluorescence at 535 nm (green) in HEK293 cell free culture (AID 720682); conditions: cell-free medium, green autofluorescence 485/535 nm, active compounds read high; series mostly up to 91.3 µM; also: % is scaled to controls: 0 for no effect and ±100 for the full control effect
Calls of active or inactive are those of the source. Calls come from the whole dose curve; as a rule, active = well fitted curve in the direction sought with a large enough effect in the repeat runs; inconclusive = weak or mixed curves; inactive = flat fitted curve, though single readings scatter.
Measurement Type: activity change

// below: answered compounds
Recorded activity change of CCCCCCC/C=C/C=O , please.
inactive

Recorded activity change of CC(C)=CCCC(C)C=O (configuration not stated) , please.
inactive

Recorded activity change of Oc1ccc(CCNCCCCCCNCCc2ccccc2)cc1O , please.
inactive

Recorded activity change of C=C[Si](OCC)(OCC)OCC , please.
inactive

Recorded activity change of CC(O)CN (configuration not stated) , please.
inactive

Recorded activity change of CC(=O)CC/C=C(\C)CC/C=C(\C)CC/C=C(\C)CCC=C(C)C , please.
inactive

Recorded activity change of CC(C(=O)O)c1ccc2c(c1)Cc1cccnc1O2 (configuration not stated) , please.
inactive

Recorded activity change of NC(=O)c1ccccc1 , please.
inactive

Recorded activity change of O=[N+]([O-])c1ccc(Cl)cc1Cl , please.
inactive

Recorded activity change of O=C1OC(=O)C2CC=CCC12 (configuration not stated) , please.
inactive

More entries:
Recorded activity change of C/C(=C(\CCO)SS/C(CCO)=C(\C)N(C=O)Cc1cnc(C)nc1N)N(C=O)Cc1cnc(C)nc1N , please.
inactive

Recorded activity change of CC(C)(C)NCC(O)COc1ccc(NC(=O)NC2CCCCC2)cc1 (configuration not stated) , please.
inactive

====

assay: qHTS RealTime-Glo MT Cell Viability Assay in HEK293 cells - 40 hour (AID 1224874); conditions: RealTime-Glo luminescence; active compounds read low; also: % is scaled to controls: 0 for no effect and ±100 for the full control effect; nearly all actives have a fitted effect of over 50% in size
Inconclusive results are not listed.
The following molecules are shown together with reported max response values.
Could you give me the number in %? Just the number is fine.

// below: answered molecules
Recorded max response of C=Cc1ccc(C=C)cc1 , please.
11.4

Recorded max response of OCCOc1cccc(OCCO)c1 , please.
12.3

Recorded max response of CC(C)Cc1nccs1 , please.
3.56

More entries:
Recorded max response of CCOc1ccccc1O , please.
-54.1

Recorded max response of O=C(O)c1cccc(C(=O)O)c1C(=O)O , please.
-17

Recorded max response of O=c1c2ccccc2oc2ccccc12 , please.
-17.5

Recorded max response of CCOc1ccc2c(c1)C(C)CC(C)(C)N2 (stereo unspecified) , please.
-1.9

Recorded max response of COc1ccc(/C(C)=C/C(=O)O)c(OC)c1 , please.
6.45

====

test: Caspase-3/7 induction in HepG2 cells by small molecules, qHTS cell viability counter screen (AID 1346981); conditions: CellTiter-Fluor fluorescence, 17 h; series mostly up to 92.4 µM; also: % is scaled to controls: 0 for no effect and ±100 for the full control effect; nearly all actives have a fitted effect of over 30% in size
Records with an inconclusive call do not appear. Active and inactive are the calls of the source. Calls follow the shape of the dose curve; as a rule, active = well fitted cell-killing curve with a large enough effect in the repeat runs; inconclusive = weak or mixed curves, or effect the other way; inactive = flat fitted curve, though single readings scatter.
Respond with a class label; see T = active, F = inactive

Answered examples (5):
Returns: the outcome recorded for CC(COc1ccccc1)NC(C)C(O)c1ccc(O)cc1 (stereo not given) in this assay.
F

Returns: the outcome recorded for COc1cc(CNC(=O)CCCC/C=C/C(C)C)ccc1O in this assay.
F

Returns: the outcome recorded for CC(C(=O)O)c1ccc2c(c1)Cc1cccnc1O2 (stereo not given) in this assay.
F

Returns: the outcome recorded for O=[N+]([O-])c1ccccc1CCO in this assay.
F

Returns: the outcome recorded for COc1ccc(/C(C)=C/C(=O)O)c(OC)c1 in this assay.
F

More entries:
Returns: the outcome recorded for C1=COCCC1 in this assay.
F

Returns: the outcome recorded for O=Cc1ccc(Cl)c([N+](=O)[O-])c1 in this assay.
F

Returns: the outcome recorded for Nc1ccc(-c2ccc(F)cc2)cc1 in this assay.
F

Returns: the outcome recorded for CCCCC(CC)COCCC#N (stereo not given) in this assay.
F

Returns: the outcome recorded for O=C(N[C@@H](Cc1ccccc1)[C@@H](O)C(=O)N1C[C@@H](O)[C@@H](O)C1)c1cc2cc(Cl)ccc2[nH]1 in this assay.
F

====

target: Cytochrome P450 1A2 (Homo sapiens); assay: Cytochrome P450 Family 1 Subfamily A Member 2 (CYP1A2) small molecule antagonists: luciferase reporter qHTS assay (AID 1671199); details: P450-Glo CYP1A2 enzyme, luciferin luminescence, 1 h; series mostly up to 115 µM; also: nearly all actives have a fitted effect of over 50% in size
Inconclusive results are not listed. Calls of active or inactive are those of the source. Calls come from the whole dose curve; as a rule, active = well fitted inhibition curve with a large enough effect in the repeat runs; inconclusive = weak or mixed curves; inactive = no such curve, though single readings can be large or run the other way.
Respond with a class label; see active, inactive

Answered examples (2):
Returns: the outcome recorded for CC1(C)C(=O)NC(=O)N1CO in this assay.
inactive

Returns: the outcome recorded for O=C(O)COCC(=O)O in this assay.
inactive

More entries:
Returns: the outcome recorded for Cc1cc(SC2=C(O)C[C@@](CCc3ccc(N)cc3)(C(C)C)OC2=O)c(C(C)(C)C)cc1CO in this assay.
inactive

Returns: the outcome recorded for CC(COc1ccccc1)NC(C)C(O)c1ccc(O)cc1 (centres undefined) in this assay.
active

Returns: the outcome recorded for CCc1ccc(C(=O)C(C)CN2CCCCC2)cc1 (centres undefined) in this assay.
inactive

Returns: the outcome recorded for O=c1[nH]nc(-c2ccc([N+](=O)[O-])o2)o1 in this assay.
active

Returns: the outcome recorded for Cc1ccccc1CCO in this assay.
inactive

Returns: the outcome recorded for Oc1ccc(CCNCCCCCCNCCc2ccccc2)cc1O in this assay.
inactive

Returns: the outcome recorded for O=C(O)c1ccccc1-n1cc(C(=O)O)c(=O)c2cc(Nc3c(F)cc(F)cc3Cl)c(Cl)cc21 in this assay.
inactive

Returns: the outcome recorded for SCCOCCOCCS in this assay.
active

Returns: the outcome recorded for C[C@]12CCC(=O)C=C1[C@@H]1C[C@@H]1[C@H]1[C@@H]3[C@@H]4C[C@@H]4[C@@]4(CCC(=O)O4)[C@@]3(C)CC[C@@H]12 in this assay.
inactive

Returns: the outcome recorded for CC(C)(C)c1cc(C=O)cc(C(C)(C)C)c1O in this assay.
inactive

Returns: the outcome recorded for C=Cc1ccc(C=C)cc1 in this assay.
inactive

Returns: the outcome recorded for COc1cccc([C@H](O)C2CCN(CCc3ccc(F)cc3)CC2)c1OC in this assay.
inactive

====

assay: qHTS assay to identify aromatase inhibitors - cell viability counter screen (AID 743084); settings: MCF-7 aro ERE viability, CellTiter-Fluor, 24 h; series mostly up to 70.3 µM;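 also: cells stimulated with testosterone during compound exposure; nearly all actives have a fitted effect of over 55% in size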; also: potency is read from the fitted curve at half-maximal effect
Results filed as inconclusive are left out. The source made the active and inactive calls. Calls follow the shape of the dose curve; as a rule, active = well fitted cell-killing curve with a large enough effect in the repeat runs; inconclusive = weak or mixed curves, or effect the other way; inactive = no such curve, though single readings can be large or run the other way.
Measurement Type: Potency

// below: answered compounds
Recorded Potency of O=C(O)c1cccc(C(=O)O)c1C(=O)O , please.
inactive

Recorded Potency of COc1ccc(C(=O)c2ccc(C)cc2)c(O)c1 , please.
inactive

Recorded Potency of CC1=CC(=C(c2ccc(N)cc2)c2ccc(N)cc2)C=CC1=N , please.
11.9 µM (active)

Recorded Potency of CCCCCCOC(=O)c1ccccc1 , please.
inactive

Recorded Potency of O=C1c2ccccc2C(=O)C1c1ccc2ccccc2n1 , please.
inactive

More entries:
Recorded Potency of C1=COCCC1 , please.
inactive

Recorded Potency of CCOc1ccc2c(c1)C(C)CC(C)(C)N2 (configuration not stated) , please.
inactive

Recorded Potency of Cc1c(Cl)cccc1[N+](=O)[O-] , please.
inactive

Recorded Potency of Cc1nc2sccn2c(=O)c1CCN1CCC(=C(c2ccc(F)cc2)c2ccc(F)cc2)CC1 , please.
inactive

Recorded Potency of COc1cc(C)c(Cc2cnc(N)nc2N)cc1OC , please.
inactive
